System: RXF 631
assay: NCI tumour cell line growth inhibition, 48 h
Active and inactive are the calls of the source. No stated cut-off is given here; in the data, active = GI50 up to about 1.1 µM and inactive = higher.
measuredParameter: GI50

compound	measuredParameter	result
CC(C)(O)[C@@H]1CC[C@@]2(C)CCC[C@H](O)[C@H]2C1	GI50	> 100 µM (inactive)
CCOC(=O)/C(=C/c1ccc(C(F)(F)F)cc1)N(CC)CC	GI50	> 100 µM (inactive)
Sc1nnc(C(c2ccccc2)c2ccccc2)[nH]1	GI50	> 100 µM (inactive)
O=C1c2c(n(Cc3ccccc3)c(=O)n2Cc2ccccc2)C(=O)N1Cc1ccccc1	GI50	62.7 µM (inactive)

Record `CC(C)(C)c1cc(C(OCCl)(C(F)(F)F)C(F)(F)F)c2c(c1)C(C(F)(F)F)(C(F)(F)F)OC21c2ccccc2C(=O)c2ccccc21` . Reported GI50: > 100 µM (inactive)

Record C=CCc1cc(OC)c2c(c1)C(O)CC(c1ccccc1)O2 (centres undefined) . Reported GI50: > 100 µM (inactive)

----------
System: RPMI-8226
assay: NCI tumour cell line growth inhibition, 48 h
The source made the active and inactive calls. No stated cut-off is given here; in the data, active = GI50 up to about 1.1 µM and inactive = higher.
// allowed return values: active, inactive

Field: outcome | Entry: `CC(=O)Nc1ccc(/C=C(\NC(=O)c2ccccc2)C(=O)NNS(=O)(=O)c2ccc(C)cc2)cc1`
inactive

Field: outcome | Entry: `C=CCSc1nc2ccccc2c(=O)n1Cc1ccco1`
inactive

Field: outcome | Entry: `O=C(Cn1ccnc1[N+](=O)[O-])N(CCO)CCO`
inactive

Field: outcome | Entry: `C/C(=C1/N=C(c2cc([N+](=O)[O-])ccc2Cl)N(c2cccc(C)c2)C1=O)c1cc2ccccc2oc1=O`
inactive

Field: outcome | Entry: `CCOC(=O)Cc1cc(=O)oc2cc(O)ccc12`
inactive

Field: outcome | Entry: `CN1CCCN(C)CCCN(C)CCCN(C)CCC1`
inactive

Field: outcome | Entry: `CCCCC1=NNC(=O)C1`
inactive

----------
System: A549
assay: NCI tumour cell line growth inhibition, 48 h
Calls of active or inactive are those of the source. Rule as the data show it: active = GI50 up to about 1.1 µM and inactive = higher.
# GI50 listing for each entry below

Record `Cc1ccc(/C(Cl)=C/C=C(C#N)C#N)cc1` . Reported GI50: 21.9 µM (inactive)

Record O=C1NC(Cc2ccc(O)cc2)C(=O)NC1Cc1ccc(O)cc1 (stereo not given) . Reported GI50: > 100 µM (inactive)

Record `O=C(CCCCCCCCCCc1ccccc1)c1c(O)cccc1O` . Reported GI50: 27.7 µM (inactive)

Record `Cc1cc(C)nc(NS(=O)(=O)c2ccc(NC(=O)c3cccc4c(Nc5ccc(S(=O)(=O)Nc6nc(C)cc(C)n6)cc5)c5ccc(Cl)cc5nc34)cc2)n1` . Reported GI50: 41.1 µM (inactive)

Record `O=C(c1ccccc1O)c1cc(-c2ncc3c(=O)c4ccccc4oc3n2)c(-c2ccccc2O)[nH]c1=O` . Reported GI50: 25.5 µM (inactive)

----------
# GI50 listing for each entry below
System: A549
assay: NCI tumour cell line growth inhibition, 48 h
Active and inactive are the calls of the source. No stated cut-off is given here; in the data, active = GI50 up to about 1.1 µM and inactive = higher.

Some molecules with recorded GI50:
molecule	testTarget	GI50
CC(CC(C)[C@H]1CCC2[C@H]3C(CC[C@@]21C)[C@@]1(C)CCC(O)C[C@H]1C[C@@H]3O)C(=O)O (stereo not given in full)	A549	> 100 µM (inactive)
O=c1c2cccnc2[nH]c2ccc3cn[nH]c3c12	A549	> 10 µM (inactive)
COC(=O)[C@]1(C)CCC[C@]2(C)C3CC4OOC3(C=C4C(C)C)CCC21 (stereo not given in full)	A549	16.8 µM (inactive)
CC1=C(C(=O)NCc2ccccc2)C(c2ccc(N(C)C)cc2)C(C(=O)NCc2ccccc2)=C(C)N1	A549	> 100 µM (inactive)

Here's the next entry for you.
Record OC1c2ccccc2C2(O)C1C(c1ccccc1)C(c1ccccc1)C2(O)c1ccccc1 (stereo not given) . Reported GI50: 11.4 µM (inactive)

----------
Tested on: BT-549
assay: NCI tumour cell line growth inhibition, 48 h
Activity calls are given as the source filed them. Cut-off read from the data, not from the text of the source: active = GI50 up to about 1.1 µM and inactive = higher.
# GI50 listing for each entry below

compound	GI50
COC(=O)C1(O)C(c2ccccc2)=NC2(C)CCCC21 (configuration not stated)	> 100 µM (inactive)
CC1(C)OC2C(O)CN3CCS[C@H]3C2O1 (some centres not stated)	> 100 µM (inactive)
CC1(CCC2C=CCC2)CCCNC1=S (configuration not stated)	> 10 µM (inactive)
CCOC(=O)NNC(=O)NCc1ccccc1CNC(=O)NNC(=O)OCC	> 100 µM (inactive)
NC(CO)C(=O)NCC(=O)O (configuration not stated)	> 100 µM (inactive)

Record `C(=N\c1ccc(-c2nc3ccccc3[nH]2)cc1)/c1cccs1` . Reported GI50: 27.4 µM (inactive)

Record `CC(C)(C)CC(C)(C)c1cc(O)c(O)c(CN2CCCCC2)c1` . Reported GI50: 15.1 µM (inactive)

----------
# GI50 listing for each entry below
Test system: NCI/ADR-RES
assay: NCI tumour cell line growth inhibition, 48 h
The source made the active and inactive calls. No stated cut-off is given here; in the data, active = GI50 up to about 1.1 µM and inactive = higher.

compound	testTarget	GI50
CC(C)(C)CC(C)(C)c1cc(O)c(O)c(CN2CCCCC2)c1	NCI/ADR-RES	5.09 µM (inactive)
O=C1c2cc3c(cc2CC12Cc1ccc4c(c1C2=O)CCC4)CCC3 (stereo not given)	NCI/ADR-RES	> 100 µM (inactive)
O=C1C[C@@]23CCC4(CC2CCC[C@H]3O1)OCCO4 (stereo not given in full)	NCI/ADR-RES	> 100 µM (inactive)

Record `CC/C(=N\NC(=O)c1cccnc1)c1ccc2c(c1)OCCO2` . Reported GI50: > 100 µM (inactive)

Record `C[C@@H](C(=O)O)N1C(c2ccco2)=C(/C(C=O)=C\c2ccco2)C(=O)/C1=C\c1ccco1` . Reported GI50: > 100 µM (inactive)

Record `CCc1nc(N)c2nc(-c3ccc(C#N)cc3)oc2n1` . Reported GI50: > 100 µM (inactive)

Record `CCOP(=O)(C/C=C/Cn1nc(Br)c(=O)[nH]c1=O)OCC` . Reported GI50: > 100 µM (inactive)

Record `COC(=O)[C@]1(c2ccc(N(C)C)cc2OC)C[C@@H]2CCCN(CCc3c1[nH]c1ccccc31)C2` . Reported GI50: 18.8 µM (inactive)

Record `CNC(=O)N(CCC#N)CCN(C(=O)NC)c1ccccc1` . Reported GI50: > 100 µM (inactive)

Record `COc1cc2c(c(OC)c1)/C(=C/Sc1ccccc1)C(=O)N(C(C)(C)C)C2` . Reported GI50: 11.7 µM (inactive)

----------
Test system: OVCAR-8
assay: NCI tumour cell line growth inhibition, 48 h
The source made the active and inactive calls. Rule as the data show it: active = GI50 up to about 1.1 µM and inactive = higher.
measuredParameter: GI50

Some molecules with recorded GI50:
molecule	GI50
Cc1cn(Cc2ccccc2CCO)c(=S)[nH]c1=O	> 100 µM (inactive)
c1ccc([P+](CCC[P+](c2ccccc2)(c2ccccc2)c2ccccc2)(c2ccccc2)c2ccccc2)cc1	32.6 µM (inactive)

Here's the next entry for you.
Record CCC(C)NC1=C(NC(C)=O)C(=O)c2ccccc2C1=O (stereo not drawn) . Reported GI50: > 75 µM (inactive)

----------
# GI50 listing for each entry below
System: MDA-MB-231
assay: NCI tumour cell line growth inhibition, 48 h
Activity calls are given as the source filed them. Rule as the data show it: active = GI50 up to about 1.1 µM and inactive = higher.

Some compounds with recorded GI50:
compound	GI50
N#Cc1c(N)[nH]c(=S)c(C#N)c1-c1cccc(Cl)c1	29.4 µM (inactive)
NC(CCC(=O)O)C(=O)NC(Cc1ccc(N(CCCl)CCCl)cc1)C(=O)O (configuration not stated)	> 100 µM (inactive)
O=C1OC(c2ccco2)=N/C1=C\c1ccc(Cl)c(Cl)c1	> 100 µM (inactive)
Cc1c(CNc2ccc(C(=O)NC(CC(=O)O)C(=O)O)cc2)ccc2nc(N)nc(N)c12 (configuration not stated)	> 100 µM (inactive)
CCc1nnc(CC)n1-n1c(Cc2ccccc2)n[nH]c1=O	> 100 µM (inactive)
COc1ccc2c(c1)CC[C@@H]1[C@@H]2CC[C@]2(C)C(=O)/C(=C/c3ccc(O)c(OC)c3)C[C@@H]12	37.2 µM (inactive)

Here's the next entry for you.
Record `COc1ccc(-c2nc(-c3cnccn3)n(COCCO)n2)cc1` . Reported GI50: > 100 µM (inactive)

----------
Tested on: NCI-H226
assay: NCI tumour cell line growth inhibition, 48 h
Calls of active or inactive are those of the source. Cut-off read from the data, not from the text of the source: active = GI50 up to about 1.1 µM and inactive = higher.
measuredParameter: GI50

compound	testTarget	GI50
CC(C)(C)CC(C)(C)c1cc(O)c(O)c(CN2CCCCC2)c1	NCI-H226	16.7 µM (inactive)
O=C(O)CNCCc1ccccc1	NCI-H226	> 100 µM (inactive)
O=C1O[C@H](c2ccc3c(c2)OCO3)[C@H]2CO[C@@H](c3ccc4c(c3)OCO4)[C@@H]12	NCI-H226	> 100 µM (inactive)
O=C1C(c2ccccc2)=C(c2ccccc2)C1(Cl)Cl	NCI-H226	3.07 µM (inactive)
CCOC1NC(/N=C/c2ccc(OC)cc2)=C(C#N)C1C#N (configuration not stated)	NCI-H226	> 100 µM (inactive)
CC1=C(C#N)c2nc3ccccc3n2C(=O)C1(C)CCO (configuration not stated)	NCI-H226	> 100 µM (inactive)
CCCCCCCCCCCC1CC(=O)NCCCN(C)CCCCN(C)CCCN1C (configuration not stated)	NCI-H226	1.93 µM (inactive)
C[N+](C)(C)CC1CCC/C1=N\OC(=O)c1ccccc1 (configuration not stated)	NCI-H226	> 100 µM (inactive)

Record CCCCCCCCC/C=C1\CC(CO)(COC(=O)c2ccccc2)OC1=O (configuration not stated) . Reported GI50: 23.2 µM (inactive)

Record `Cc1ccc(/C(Cl)=C/C=C(C#N)C#N)cc1` . Reported GI50: 4.39 µM (inactive)

Record COc1ccc(N2C(=O)C3c4[nH]c5ccccc5c4C4CCCCCCC4C3C2=O)cc1 (configuration not stated) . Reported GI50: 12.4 µM (inactive)

The measurements presented in this section are drawn from ChEMBL document CHEMBL1201862.
